# measurement-target: T1, Human CD3eg linker (human)
# T1 construct: Single chain: epsilon and gamma subunits of human CD3 joined by a 29-mer linker, Flag-tag at the C-terminus; also called recombinant human CD3
# T1 chain: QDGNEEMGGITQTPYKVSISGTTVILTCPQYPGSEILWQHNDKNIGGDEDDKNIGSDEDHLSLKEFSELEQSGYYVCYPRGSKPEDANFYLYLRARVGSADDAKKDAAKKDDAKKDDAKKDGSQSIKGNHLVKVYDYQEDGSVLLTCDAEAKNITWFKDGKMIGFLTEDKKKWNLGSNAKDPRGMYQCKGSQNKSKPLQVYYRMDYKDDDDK
# assay-overview: Biacore SPR, vs template H183/L072
result-type: fold change of affinity (fold)
Write it as a number; the unit fold goes unstated.

H183/L072 VH Y94M (antibody, name in Kabat numbering, V domains shown) VH: QVQLVESGGGLVQPGRSLRLSCAASGFTFSNAWMHWVRQAPGKGLEWVAQIKDKGNAYAAYYAPSVKGRFTISRDDSKNSIYLQMNSLKTEDTAVYYCHMVHYASASTVLPAFGVDAWGQGTTVTVSS VL: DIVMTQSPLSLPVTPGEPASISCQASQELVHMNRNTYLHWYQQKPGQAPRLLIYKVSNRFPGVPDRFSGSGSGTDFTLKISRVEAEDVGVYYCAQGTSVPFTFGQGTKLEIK : 0
H183/L072 VH G26D (antibody, name in Kabat numbering, V domains shown) VH: QVQLVESGGGLVQPGRSLRLSCAASDFTFSNAWMHWVRQAPGKGLEWVAQIKDKGNAYAAYYAPSVKGRFTISRDDSKNSIYLQMNSLKTEDTAVYYCHYVHYASASTVLPAFGVDAWGQGTTVTVSS VL: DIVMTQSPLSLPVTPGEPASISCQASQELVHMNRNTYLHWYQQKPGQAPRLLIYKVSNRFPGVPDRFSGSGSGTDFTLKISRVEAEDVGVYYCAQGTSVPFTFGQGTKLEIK : 0.2
H183/L072 VH A100fP (antibody, name in Kabat numbering, V domains shown) VH: QVQLVESGGGLVQPGRSLRLSCAASGFTFSNAWMHWVRQAPGKGLEWVAQIKDKGNAYAAYYAPSVKGRFTISRDDSKNSIYLQMNSLKTEDTAVYYCHYVHYASASTVLPPFGVDAWGQGTTVTVSS VL: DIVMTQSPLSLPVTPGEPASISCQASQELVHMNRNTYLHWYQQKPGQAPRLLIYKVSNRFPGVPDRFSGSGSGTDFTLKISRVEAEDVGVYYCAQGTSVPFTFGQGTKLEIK : 0.6

Record summary for H183/L072 VH A56R (antibody, name in Kabat numbering, V domains shown) VH: QVQLVESGGGLVQPGRSLRLSCAASGFTFSNAWMHWVRQAPGKGLEWVAQIKDKGNAYRAYYAPSVKGRFTISRDDSKNSIYLQMNSLKTEDTAVYYCHYVHYASASTVLPAFGVDAWGQGTTVTVSS VL: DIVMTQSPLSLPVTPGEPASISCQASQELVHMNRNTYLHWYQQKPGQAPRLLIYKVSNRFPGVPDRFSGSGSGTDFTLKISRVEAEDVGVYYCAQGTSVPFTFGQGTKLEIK : reported fold change of affinity = 1.3

Record summary for H183/L072 VH A57D (antibody, name in Kabat numbering, V domains shown) VH: QVQLVESGGGLVQPGRSLRLSCAASGFTFSNAWMHWVRQAPGKGLEWVAQIKDKGNAYADYYAPSVKGRFTISRDDSKNSIYLQMNSLKTEDTAVYYCHYVHYASASTVLPAFGVDAWGQGTTVTVSS VL: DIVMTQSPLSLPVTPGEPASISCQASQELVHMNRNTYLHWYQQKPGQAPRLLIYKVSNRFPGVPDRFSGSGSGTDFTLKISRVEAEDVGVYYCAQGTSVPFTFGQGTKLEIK : reported fold change of affinity = 1

Record summary for H183/L072 VH W33D (antibody, name in Kabat numbering, V domains shown) VH: QVQLVESGGGLVQPGRSLRLSCAASGFTFSNADMHWVRQAPGKGLEWVAQIKDKGNAYAAYYAPSVKGRFTISRDDSKNSIYLQMNSLKTEDTAVYYCHYVHYASASTVLPAFGVDAWGQGTTVTVSS VL: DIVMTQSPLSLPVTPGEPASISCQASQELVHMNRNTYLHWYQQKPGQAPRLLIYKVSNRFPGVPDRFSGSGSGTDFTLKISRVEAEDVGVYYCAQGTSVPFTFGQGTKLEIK : reported fold change of affinity = 0

Record summary for H183/L072 VH A32Y (antibody, name in Kabat numbering, V domains shown) VH: QVQLVESGGGLVQPGRSLRLSCAASGFTFSNYWMHWVRQAPGKGLEWVAQIKDKGNAYAAYYAPSVKGRFTISRDDSKNSIYLQMNSLKTEDTAVYYCHYVHYASASTVLPAFGVDAWGQGTTVTVSS VL: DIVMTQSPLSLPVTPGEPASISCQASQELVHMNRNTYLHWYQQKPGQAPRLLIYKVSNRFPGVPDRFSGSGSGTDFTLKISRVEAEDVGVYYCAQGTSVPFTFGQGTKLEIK : reported fold change of affinity = 0

Record summary for H183/L072 VH Y59V (antibody, name in Kabat numbering, V domains shown) VH: QVQLVESGGGLVQPGRSLRLSCAASGFTFSNAWMHWVRQAPGKGLEWVAQIKDKGNAYAAYVAPSVKGRFTISRDDSKNSIYLQMNSLKTEDTAVYYCHYVHYASASTVLPAFGVDAWGQGTTVTVSS VL: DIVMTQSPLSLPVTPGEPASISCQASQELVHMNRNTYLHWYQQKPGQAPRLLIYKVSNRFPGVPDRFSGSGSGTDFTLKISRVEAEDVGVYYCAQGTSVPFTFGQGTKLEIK : reported fold change of affinity = 1.2

Record summary for H183/L072 VH A32D (antibody, name in Kabat numbering, V domains shown) VH: QVQLVESGGGLVQPGRSLRLSCAASGFTFSNDWMHWVRQAPGKGLEWVAQIKDKGNAYAAYYAPSVKGRFTISRDDSKNSIYLQMNSLKTEDTAVYYCHYVHYASASTVLPAFGVDAWGQGTTVTVSS VL: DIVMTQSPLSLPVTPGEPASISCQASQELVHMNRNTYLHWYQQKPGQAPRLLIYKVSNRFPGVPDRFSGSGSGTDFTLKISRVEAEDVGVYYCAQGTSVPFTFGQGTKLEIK : reported fold change of affinity = 0

Record summary for H183/L072 VH V95I (antibody, name in Kabat numbering, V domains shown) VH: QVQLVESGGGLVQPGRSLRLSCAASGFTFSNAWMHWVRQAPGKGLEWVAQIKDKGNAYAAYYAPSVKGRFTISRDDSKNSIYLQMNSLKTEDTAVYYCHYIHYASASTVLPAFGVDAWGQGTTVTVSS VL: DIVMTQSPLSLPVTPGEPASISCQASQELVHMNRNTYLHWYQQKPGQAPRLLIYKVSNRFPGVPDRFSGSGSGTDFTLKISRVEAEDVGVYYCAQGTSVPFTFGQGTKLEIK : reported fold change of affinity = 7.5

The measurements presented in this section are drawn from patent US20210388087A1.
